tested on: A/H3N2 (A/HK/7/87); test: microbe, parasite or virus in culture; type: cell-based; conditions: Influenza A virus, H3N2, MDCK, read-out: Antiviral EC50 A/H3N2 (A/HK/7/87)
# reported EC50; entries follow
The reply should be a number in µM, with the unit left off.

Solved entries (count: 2):
compound: C1=CC2C3C4C5C=CC4C24CNCC54C13
uom: µM
EC50: 16
//
compound: CC(N)C12CC3CC(CC(C3)C1)C2 (stereo not drawn)
uom: µM
EC50: 0.17

Prompt: May I ask what EC50 has been recorded for NC12CC3CC(CC(C3)C1)C2 ?
Completion: 3.4

Data origin: paper PMC7114147
